Tested on: HOP-92
Test description: NCI tumour cell line growth inhibition, 48 h
Active and inactive are the calls of the source. Cut-off read from the data, not from the text of the source: active = GI50 up to about 1.1 µM and inactive = higher.
Measured attribute: GI50

Lab note: measured GI50 of O=C(/C=C/c1ccc(O)cc1)c1cc(O)cc(O)c1 was 14.3 µM (inactive)

According to the records, this compound COC(=O)c1cccc2cccc(C(=O)Nc3ccc(Cl)cc3)c12 displays GI50 of > 69.7 µM (inactive)

Note to self: GI50 recorded for CCC(C)C(C(=O)N/N=C1/SCC(=O)N1c1ccccc1)C(=O)N/N=C1/SCC(=O)N1c1ccccc1 (stereo not given) was 19 µM (inactive)

Lab note: COc1ccc(Nc2nn3c(=O)c4c(C)c(C)sc4nc3s2)cc1 gave GI50 of 27.3 µM (inactive)

// sample CC(C)(C)C1CCC2c3c([nH]c4ccccc34)C3C(=O)N(c4ccc(Br)cc4)C(=O)C3C2C1 (stereo not given) , its GI50 was 24.3 µM (inactive)

Recorded GI50 (compound O=[N+]([O-])c1cccc(/C=N/NC2=CS(=O)(=O)C=C2)c1 ): > 100 µM (inactive)

GI50 measured on O=C1/C(=C\c2ccc([N+](=O)[O-])cc2)CS(=O)(=O)C/C1=C/c1ccc([N+](=O)[O-])cc1 = 1.91 µM (inactive)

GI50 recorded for this compound, Oc1ncnc2c1nnn2CCCCCCCCCCCCn1nnc2c(O)ncnc21 , is 30 µM (inactive)

// GI50 lookup, compound = CC(=O)N1N=C(c2c(O)ccc3ccccc23)CC1C(=O)c1ccco1 (stereo not given) , result: 52.7 µM (inactive)

According to the records, this compound CN(Cc1cnc2nc(N)nc(N)c2n1)c1ccc(C(=O)NCCCC(=O)O)cc1 displays GI50 of > 100 µM (inactive)

Cited source for all entries: ChEMBL document CHEMBL1201862
